assay: Acute toxicity (LD50) in mice; conditions: mouse, in vivo
Measurement Kind: LD50 (mg/kg)
The response must be a number in mg/kg with no trailing unit.

Query :: Query (compound): CCCCCOC1C[C@@H]2[C@@H](/C=C/[C@H](O)CCCCC)[C@H](O)C[C@@H]2O1 (single isomer, unassigned; (-)) ; field requested: LD50
Result :: 700

Measured values drawn from patent US4257962A for this set.
